Origin of values: paper PMC6749521

Target: CYP1A2 (Homo sapiens)
Sequence (P05177 whole entry): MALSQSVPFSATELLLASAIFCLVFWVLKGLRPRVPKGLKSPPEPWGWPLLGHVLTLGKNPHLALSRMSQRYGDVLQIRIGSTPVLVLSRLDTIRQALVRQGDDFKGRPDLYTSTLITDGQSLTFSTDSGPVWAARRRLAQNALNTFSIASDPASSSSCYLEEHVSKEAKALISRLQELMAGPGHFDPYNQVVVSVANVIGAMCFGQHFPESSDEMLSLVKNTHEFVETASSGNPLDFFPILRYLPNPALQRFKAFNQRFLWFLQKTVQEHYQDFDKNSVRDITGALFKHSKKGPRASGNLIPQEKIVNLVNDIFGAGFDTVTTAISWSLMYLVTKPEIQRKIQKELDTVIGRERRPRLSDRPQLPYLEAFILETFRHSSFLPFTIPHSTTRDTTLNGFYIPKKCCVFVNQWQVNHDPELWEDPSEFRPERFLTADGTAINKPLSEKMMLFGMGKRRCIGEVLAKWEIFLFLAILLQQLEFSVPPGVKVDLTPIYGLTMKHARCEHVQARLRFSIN
Test: CYP1A2 enzyme activity, phenacetin O-deethylation (MDI, TDI, DI assays), recombinant baculosomes
Details: human, pH 7.4, probe phenacetin (O-deethylation), 150 µM, Residual CYP1A2 enzyme activity, direct inhibition (DI) assay, 1 µM flavonoid; no preincubation
observation_type: activity at 15 min, 1 µM (%)
Number only, in %; omit the unit.

Param request: activity at 15 min, 1 µM | system CYP1A2 (Homo sapiens) | item O=c1cc(-c2ccccc2)oc2cc(O)cc(O)c12
23

====

Target: CYP2A6 (Homo sapiens, UniProt P11509)
Sequence (P11509 1-494): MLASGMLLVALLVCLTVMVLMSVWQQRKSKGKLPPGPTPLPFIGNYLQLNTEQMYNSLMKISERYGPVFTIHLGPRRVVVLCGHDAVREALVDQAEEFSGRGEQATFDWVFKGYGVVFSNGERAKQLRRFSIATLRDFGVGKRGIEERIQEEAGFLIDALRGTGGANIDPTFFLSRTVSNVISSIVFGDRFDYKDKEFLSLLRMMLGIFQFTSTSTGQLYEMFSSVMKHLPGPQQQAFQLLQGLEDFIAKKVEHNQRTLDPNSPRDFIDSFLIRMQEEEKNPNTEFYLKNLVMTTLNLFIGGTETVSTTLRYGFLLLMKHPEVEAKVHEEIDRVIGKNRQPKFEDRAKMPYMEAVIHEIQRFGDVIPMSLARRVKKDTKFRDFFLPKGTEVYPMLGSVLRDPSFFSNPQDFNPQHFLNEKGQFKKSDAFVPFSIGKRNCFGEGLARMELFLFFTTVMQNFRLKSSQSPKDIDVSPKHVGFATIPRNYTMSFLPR
Experiment: CYP2A6 enzyme activity, coumarin 7-hydroxylation (MDI, TDI, DI assays), recombinant baculosomes
Details: human, pH 7.4
observation_type: inhibition at 30 min, 1 µM (%)
Number only, in %; omit the unit.

Read off the recorded inhibition at 30 min, 1 µM for COc1cc(-c2oc3cc(O)cc(O)c3c(=O)c2O)ccc1O
16
